Source: paper PMC7590959

test: Plasma PK after IV administration in mice; format: in vivo; settings: CD-1, mouse, 50 mg/kg
assay-endpoint: clearance at 2 h (L/h/kg)

sample_smiles=CC(C)(O/N=C(\C(=O)N[C@H]1CN2CC(C(=O)NCCN3C(=O)c4cc(O)c(O)cc4C3=O)=C(C(=O)O)N2C1=O)c1csc(N)n1)C(=O)O numeric_value=0.84
